Tested on: P388
protocol_summary: In vitro inhibition against P-388 mouse leukemia cells using growth inhibition assay at the concentration of 25 ug/mL
Format: functional
Would you mind labelling by inhibition at 25 µg/mL? At or over 10% is MET, under is NOT MET.

[
  {
    "molecule": "Nc1nc(Cl)c2ncn(C3CC(CO)C(O)C3O)c2n1 (configuration not stated)",
    "qualitative_label": "NOT MET"
  },
  {
    "molecule": "Nc1nc(N)c2nnn(C3CC(CO)C(O)C3O)c2n1 (configuration not stated)",
    "qualitative_label": "MET"
  },
  {
    "molecule": "Nc1nc(N)c2ncn(C3CC(CO)C(O)C3O)c2n1 (configuration not stated)",
    "qualitative_label": "NOT MET"
  },
  {
    "molecule": "Nc1nc(Cl)c2nnn(C3CC(CO)C(O)C3O)c2n1 (configuration not stated)",
    "qualitative_label": "MET"
  },
  {
    "molecule": "Nc1nc(O)c2nnn(C3CC(CO)C(O)C3O)c2n1 (configuration not stated)",
    "qualitative_label": "NOT MET"
  },
  {
    "molecule": "Nc1ncnc2c1ncn2[C@@H]1C[C@H](CO)[C@@H](O)[C@H]1O [ARISTEROMYCIN]",
    "qualitative_label": "MET"
  },
  {
    "molecule": "Nc1nc(O)c2ncn(C3CC(CO)C(O)C3O)c2n1 (configuration not stated)",
    "qualitative_label": "MET"
  }
]
